Below, each entry is listed alongside its reported IC50.
# target or system: Amine oxidase [flavin-containing] A (Homo sapiens)
# Sequence (P21397 whole entry): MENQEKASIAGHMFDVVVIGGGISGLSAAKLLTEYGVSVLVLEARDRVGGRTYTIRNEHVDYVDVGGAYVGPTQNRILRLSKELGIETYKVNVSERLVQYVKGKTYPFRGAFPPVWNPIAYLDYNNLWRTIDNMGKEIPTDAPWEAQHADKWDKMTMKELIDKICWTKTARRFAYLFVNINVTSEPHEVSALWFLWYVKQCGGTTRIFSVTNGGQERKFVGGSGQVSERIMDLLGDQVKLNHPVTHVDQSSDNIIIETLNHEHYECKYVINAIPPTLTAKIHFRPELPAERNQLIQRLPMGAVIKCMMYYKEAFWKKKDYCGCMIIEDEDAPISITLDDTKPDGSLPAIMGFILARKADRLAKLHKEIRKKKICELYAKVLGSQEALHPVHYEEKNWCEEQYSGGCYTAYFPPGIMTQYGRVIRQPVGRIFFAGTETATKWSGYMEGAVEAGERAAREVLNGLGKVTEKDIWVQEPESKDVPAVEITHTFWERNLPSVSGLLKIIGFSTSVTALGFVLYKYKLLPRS
# test: Inhibition of human recombinant MAO-A expressed in insect cell microsome assessed as 4-hydroxyquinoline formation using kynuramine as substrate after 20 mins by fluorescence spectrophotometry
Unit µM implied. Number only.

Answered examples (4):
1) Cn1c(=O)c2c(nc(SCc3cccc(Br)c3)n2C)n(C)c1=O | 37.9
2) Cn1c(=O)c2c(nc(SCCc3cccc(Br)c3)n2C)n(C)c1=O | 5.7
3) Cn1c(=O)c2c(nc(SCc3cccc(Cl)c3)n2C)n(C)c1=O | 6.43
4) Cn1c(=O)c2c(nc(SCCc3ccc(Br)cc3)n2C)n(C)c1=O | 108

Moving on to the next molecule.
Sample "Cn1c(=O)c2c(nc(SCCc3ccc(F)cc3)n2C)n(C)c1=O" — what was its IC50?
14.7
